- tested-system: E. coli iPGM (Escherichia coli, UniProt P37689)
- assay-procedure: SPR binding kinetics and saturation binding, biotinylated iPGM on Biotin CAPture chip (Biacore S200)
- particulars: Supplementary Table 5, SPR, E.c. iPGM; LoQ = limit of quantitation
Bridge positions count the residues as written; N and C are the ends. Square brackets hold non-standard residues; d marks the D form. Peptide text beside a SMILES is read from it. Nva = CCC[C@H](N)C(=O)O
Each entry below carries its recorded koff.
metric-name: koff (s⁻¹)

INSERT INTO results (compound, obs_value) VALUES
  ('CCC[C@@H]1NC(=O)[C@@H](Cc2ccc(O)cc2)NC(=O)CSC[C@@H](C(=O)N[C@@H](Cc2ccc(O)cc2)C(=O)N[C@@H](CC(C)C)C(=O)N[C@@H](Cc2ccc(O)cc2)C(=O)NCC(=O)N[C@H](C(=O)N[C@@H](CS)C(N)=O)[C@@H](C)O)NC(=O)[C@H](Cc2ccc(O)cc2)NC(=O)[C@H](CC(=O)O)NC(=O)CNC(=O)[C@@H]2CCCN2C(=O)[C@H](Cc2ccc(O)cc2)NC1=O [Ce-2 D2Nva] ({CH2CO}-[dY][Nva]YPGDYCYLYGTC-NH2; thioether N-8)', 0.00195),
  ('CC(C)C[C@H](NC(=O)[C@H](Cc1ccc(O)cc1)NC(=O)[C@@H]1CSCC(=O)N[C@H](Cc2ccc(O)cc2)C(=O)N[C@@H](CC(=O)O)C(=O)N[C@@H](Cc2ccc(O)cc2)C(=O)N2CCC[C@H]2C(=O)NCC(=O)N[C@@H](CC(=O)O)C(=O)N[C@@H](Cc2ccc(O)cc2)C(=O)N1)C(=O)N[C@@H](Cc1ccc(O)cc1)C(=O)NCC(=O)N[C@@H](CO)C(=O)N[C@@H](CS)C(N)=O [Ce-2 Thr13Ser]', 0.000333),
  ('CC(C)C[C@H](NC(=O)[C@H](Cc1ccc(O)cc1)NC(=O)[C@@H]1CSCC(=O)N[C@H](Cc2ccc(O)cc2)C(=O)N[C@@H](CC(=O)O)C(=O)N[C@@H](Cc2ccc(O)cc2)C(=O)N2CCC[C@H]2C(=O)NCC(=O)N[C@@H](CC(=O)O)C(=O)N[C@@H](Cc2ccc(O)cc2)C(=O)N1)C(=O)N[C@@H](Cc1ccc(O)cc1)C(=O)NCC(=O)NCC(=O)N[C@@H](CS)C(N)=O [Ce-2 T13G]', 0.00133);
